# credit: patent US20150104448A1

- assayed_system: T1, Inactive-C1s (Homo sapiens, UniProt P09871)
- T1 construct: proenzyme (pro-C1s); also called pro-C1s
- T1 sequence (single chain, looked up): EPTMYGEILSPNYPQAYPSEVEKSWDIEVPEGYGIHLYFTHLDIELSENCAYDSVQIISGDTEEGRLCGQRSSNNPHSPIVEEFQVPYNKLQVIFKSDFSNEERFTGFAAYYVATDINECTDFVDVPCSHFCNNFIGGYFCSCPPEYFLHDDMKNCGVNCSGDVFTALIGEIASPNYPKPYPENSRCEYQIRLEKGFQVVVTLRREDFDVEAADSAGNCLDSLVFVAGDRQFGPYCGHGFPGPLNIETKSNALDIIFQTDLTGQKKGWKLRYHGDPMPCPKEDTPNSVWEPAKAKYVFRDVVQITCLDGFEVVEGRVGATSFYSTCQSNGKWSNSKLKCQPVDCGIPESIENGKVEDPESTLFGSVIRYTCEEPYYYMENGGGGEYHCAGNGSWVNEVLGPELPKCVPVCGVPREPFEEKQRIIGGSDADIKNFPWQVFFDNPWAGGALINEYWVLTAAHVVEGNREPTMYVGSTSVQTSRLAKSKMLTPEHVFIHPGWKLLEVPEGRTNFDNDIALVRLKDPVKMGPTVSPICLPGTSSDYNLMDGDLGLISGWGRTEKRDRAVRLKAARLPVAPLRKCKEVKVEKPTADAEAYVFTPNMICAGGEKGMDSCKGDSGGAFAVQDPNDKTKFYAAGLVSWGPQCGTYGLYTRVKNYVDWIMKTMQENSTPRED
- assay_text: kinetic binding measurement, method not stated; Table 10, pro-C1s
Exercise: state measured koff for each of the binders provided.
Give bare numbers, in s⁻¹.

# annotated cases, reported koff shown
{"binder": "VH4/Vk1 (antibody, V domains shown, member of group m7; also called VH4/Vκ1; VH variant 4 + Vk variant 1) VH: EVQLVESGGGLVKPGGSLRLSCAASGFTFSNYAMSWVRQAPGKGLEWVATISSGGSHTYYLDSVKGRFTISRDNSKNTLYLQMNSLRAEDTALYYCARLFTGYAMDYWGQGTLVTVSS VL: QIVLTQSPAILSLSPGERATMSCTASSSVSSSYLHWYQQKPGKAPKLWIYSTSNLASGVPSRFSGSGSGTFYTLTISSLQAEDFATYYCHQYYRLPPITFGQGTKLEIK", "unit_label": "s⁻¹", "koff": 0.000319}
{"binder": "VH2/Vk1 (antibody, V domains shown, member of group m7; also called VH2/Vκ1; VH variant 2 + Vk variant 1) VH: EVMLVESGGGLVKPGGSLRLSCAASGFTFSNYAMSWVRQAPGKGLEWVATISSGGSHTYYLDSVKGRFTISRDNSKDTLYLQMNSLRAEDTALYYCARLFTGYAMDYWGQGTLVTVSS VL: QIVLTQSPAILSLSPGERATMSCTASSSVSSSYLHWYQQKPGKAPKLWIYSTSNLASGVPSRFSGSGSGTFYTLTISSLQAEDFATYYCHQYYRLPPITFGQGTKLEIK", "unit_label": "s⁻¹", "koff": 0.000262}
{"binder": "VH3/Vk2 (antibody, V domains shown, member of group m7; also called VH3/Vκ2; VH variant 3 + Vk variant 2) VH: EVMLVESGGGLVKPGGSLRLSCAASGFTFSNYAMSWVRQAPGKGLEWVATISSGGSHTYYLDSVKGRFTISRDNSKDTLYLQMSSLRAEDTALYYCARLFTGYAMDYWGQGTSVTVSS VL: QIVLTQSPATLSLSPGERATMSCTASSSVSSSYLHWYQQKPGKAPKLWIYSTSNLASGVPSRFSGSGSGTDYTLTISSLQPEDFATYYCHQYYRLPPITFGQGTKLEIK", "unit_label": "s⁻¹", "koff": 0.000315}
{"binder": "VH2/Vk2 (antibody, V domains shown, member of group m7; also called VH2/Vκ2; VH variant 2 + Vk variant 2) VH: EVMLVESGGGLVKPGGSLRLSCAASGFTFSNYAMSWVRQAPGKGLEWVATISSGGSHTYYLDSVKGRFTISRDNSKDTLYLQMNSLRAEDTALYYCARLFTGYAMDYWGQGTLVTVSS VL: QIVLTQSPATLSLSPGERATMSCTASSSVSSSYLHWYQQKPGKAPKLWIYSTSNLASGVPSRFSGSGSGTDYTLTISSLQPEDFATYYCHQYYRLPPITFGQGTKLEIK", "unit_label": "s⁻¹", "koff": 0.000269}

Please give koff for each item listed below.
1. VH4/Vk3 (antibody, V domains shown, member of group m7; also called VH4/Vκ3; VH variant 4 + Vk variant 3) VH: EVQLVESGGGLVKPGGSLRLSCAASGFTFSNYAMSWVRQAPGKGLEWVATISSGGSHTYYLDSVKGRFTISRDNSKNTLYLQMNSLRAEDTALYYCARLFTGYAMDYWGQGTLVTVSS VL: QIVLTQSPATLSLSPGERATLSCTASSSVSSSYLHWYQQKPGKAPKLWIYSTSNLASGVPSRFSGSGSGTDYTLTISSLQPEDFATYYCHQYYRLPPITFGQGTKLEIK
2. VH3/Vk3 (antibody, V domains shown, member of group m7; also called VH3/Vκ3; VH variant 3 + Vk variant 3) VH: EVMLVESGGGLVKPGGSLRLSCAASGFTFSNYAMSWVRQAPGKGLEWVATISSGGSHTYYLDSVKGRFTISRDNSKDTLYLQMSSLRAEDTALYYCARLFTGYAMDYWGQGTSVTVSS VL: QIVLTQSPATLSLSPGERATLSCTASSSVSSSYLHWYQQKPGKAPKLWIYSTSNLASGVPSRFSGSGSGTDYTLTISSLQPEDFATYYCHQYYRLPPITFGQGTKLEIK
3. VH4/Vk2 (antibody, V domains shown, member of group m7; also called VH4/Vκ2; VH variant 4 + Vk variant 2) VH: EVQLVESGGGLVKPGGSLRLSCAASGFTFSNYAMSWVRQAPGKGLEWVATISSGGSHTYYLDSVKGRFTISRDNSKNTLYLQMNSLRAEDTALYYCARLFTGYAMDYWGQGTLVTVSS VL: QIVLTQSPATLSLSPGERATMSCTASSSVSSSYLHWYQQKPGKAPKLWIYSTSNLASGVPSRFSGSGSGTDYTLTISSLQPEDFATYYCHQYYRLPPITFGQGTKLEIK
4. VH1/Vk1 (antibody, V domains shown, member of group m7; also called VH1/Vκ1; VH variant 1 + Vk variant 1) VH: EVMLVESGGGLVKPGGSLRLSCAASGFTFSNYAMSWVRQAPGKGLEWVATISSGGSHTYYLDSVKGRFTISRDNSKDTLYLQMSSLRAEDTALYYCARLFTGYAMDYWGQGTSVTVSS VL: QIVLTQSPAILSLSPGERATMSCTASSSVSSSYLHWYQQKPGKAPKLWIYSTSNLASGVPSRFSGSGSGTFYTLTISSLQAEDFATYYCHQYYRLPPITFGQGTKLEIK
5. VH2/Vk3 (antibody, V domains shown, member of group m7; also called VH2/Vκ3; VH variant 2 + Vk variant 3) VH: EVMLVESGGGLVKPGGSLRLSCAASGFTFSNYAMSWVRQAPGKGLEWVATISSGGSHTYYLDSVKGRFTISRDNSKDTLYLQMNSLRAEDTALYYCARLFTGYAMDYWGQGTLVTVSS VL: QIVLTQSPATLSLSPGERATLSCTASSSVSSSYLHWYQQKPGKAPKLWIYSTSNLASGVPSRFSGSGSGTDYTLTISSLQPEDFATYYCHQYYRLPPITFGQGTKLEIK

A.
1. 0.000306
2. 0.000351
3. 0.000263
4. 0.000198
5. 0.000275

Q. # input binder: VH3/Vk1 (antibody, V domains shown, member of group m7; also called VH3/Vκ1; VH variant 3 + Vk variant 1) VH: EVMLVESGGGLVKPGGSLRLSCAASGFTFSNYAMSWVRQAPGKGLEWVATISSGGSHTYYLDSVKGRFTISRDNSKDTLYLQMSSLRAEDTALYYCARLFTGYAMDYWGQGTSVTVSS VL: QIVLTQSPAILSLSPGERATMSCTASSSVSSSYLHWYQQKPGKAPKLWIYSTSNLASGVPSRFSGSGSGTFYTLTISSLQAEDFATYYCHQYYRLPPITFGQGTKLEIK ; wanted: its koff
A. 0.000255
